B1: VAMP4 (parent)
chain: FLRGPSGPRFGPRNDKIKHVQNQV

- Variants of: B1
- assay.details: protein stability index of a GFP-peptide fusion (GPS, HEK-293T) (PSI 1-6); higher = more stable;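 note: lentivirally expressed fusions sorted by FACS into six bins by GFP to DsRed ratio, PSI derived from sequencing read proportions per bin multiplied by bin number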
- assay.setup: c terminus: a fixed tail appended
As shown below, each of these variants has a reported protein stability index value.

[[record]]
variant_id = "R3G"
assay_readout = "protein stability index"
experimental_value = 2.74

[[record]]
variant_id = "P8C"
assay_readout = "protein stability index"
experimental_value = 2.44

[[record]]
variant_id = "G11H"
assay_readout = "protein stability index"
experimental_value = 2.81

[[record]]
variant_id = "I17V"
assay_readout = "protein stability index"
experimental_value = 2.5

[[record]]
variant_id = "K18Y"
assay_readout = "protein stability index"
experimental_value = 2.15


Record summary for "G11L" : reported protein stability index = 2.47

Record summary for "K18V" : reported protein stability index = 2.91

Record summary for "R13W" : reported protein stability index = 1.87

Record summary for "F1N" : reported protein stability index = 3.44

Record summary for "R9T" : reported protein stability index = 2.75
